Hello, the source for this data is patent US12371432B2, in case you need it.

Biological target: rhAOC1 (Homo sapiens)
Construct: purchased R&D
Sequence (P19801 20-751): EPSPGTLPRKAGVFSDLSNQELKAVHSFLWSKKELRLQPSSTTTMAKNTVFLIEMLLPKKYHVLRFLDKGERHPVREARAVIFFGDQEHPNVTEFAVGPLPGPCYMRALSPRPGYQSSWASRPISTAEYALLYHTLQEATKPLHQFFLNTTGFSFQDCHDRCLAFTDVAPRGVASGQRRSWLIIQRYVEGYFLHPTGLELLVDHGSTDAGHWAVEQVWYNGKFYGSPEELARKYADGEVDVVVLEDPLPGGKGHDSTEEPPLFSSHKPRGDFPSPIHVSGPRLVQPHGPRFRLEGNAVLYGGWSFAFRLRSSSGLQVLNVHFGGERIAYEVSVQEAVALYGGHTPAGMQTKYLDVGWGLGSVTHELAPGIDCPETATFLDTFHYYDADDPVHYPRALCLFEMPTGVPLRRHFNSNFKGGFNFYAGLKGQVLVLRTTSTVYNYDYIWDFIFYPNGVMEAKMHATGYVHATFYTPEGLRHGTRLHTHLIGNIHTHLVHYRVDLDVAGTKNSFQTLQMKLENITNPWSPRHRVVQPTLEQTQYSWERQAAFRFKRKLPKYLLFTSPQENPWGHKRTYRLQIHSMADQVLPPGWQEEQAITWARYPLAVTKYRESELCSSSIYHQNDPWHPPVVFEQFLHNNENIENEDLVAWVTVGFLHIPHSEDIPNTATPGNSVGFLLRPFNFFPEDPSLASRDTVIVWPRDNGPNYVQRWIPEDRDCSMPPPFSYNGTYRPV
Assay: Selectivity against rhAOC1 enzyme (Biological Example 2)
Assay type: biochemical
Details: Table 2; histamine substrate, Amplex Red/HRP
Where a name gives a salt, the structure may show the parent alone.
Readings of log10 of IC50 for the listed compounds
Property label: log10 of IC50 (log10 of the value in µM)

Compound	log10 of IC50
Cc1c2c(cn1C/C(=C/F)CN)C(=O)N(C1CC1)CC2 [Compound A35 hydrochloride]	0.85
COC1CCN(C(=O)c2ccc3c(ccn3C/C(=C/F)CN)c2)CC1 [Compound C14 hydrochloride]	1.12
CCN1Cc2cnn(C/C(=C/F)CN)c2C1=O [Compound A31 hydrochloride]	0.92
CCN1CCc2nn(C/C(=C/F)CN)cc2C1=O [Compound A6 hydrochloride]	0.95
NC/C(=C\F)Cn1cc2c(n1)CCN(C1CCCC1)C2=O [Compound A10 hydrochloride]	0.09
CCNC(=O)c1cnn(C/C(=C/F)CN)c1	0.73
CC(C)N1CCc2nn(C/C(=C/F)CN)cc2C1=O [Compound A27 hydrochloride]	0.98
NC/C(=C\F)Cn1ccc2cc(C(=O)N3CCC3)ccc21 [Compound C13 hydrochloride]	0.03
NC/C(=C\F)Cn1cc2c(n1)CCN(C1CCC1)C2=O [Compound A9 hydrochloride]	-0.04
Cl.NC/C(=C\F)Cn1cc2c(c1Cl)CCN(C1CC1)C2=O [Compound A42 hydrochloride]	1.46
CC(C)(C)N1Cc2nn(C/C(=C/F)CN)cc2C1=O	0.62
NC/C(=C\F)Cn1cc2c(c1)C(=O)N(C1CC1)CC2	1.17
CCn1ccc2c(cnn2C/C(=C/F)CN)c1=O [Compound A29 hydrochloride]	-0.17
CCN1CCc2cn(C/C(=C/F)CN)cc2C1=O	1.06
COC1(C)CCN(C(=O)c2ccc3c(ccn3C/C(=C/F)CN)c2)CC1 [Compound C15 hydrochloride]	0.92
NC/C(=C\F)Cn1ccc2cc(C(=O)N3CCCC3)ccc21 [Compound C7 hydrochloride]	1.13
CC(C)(C)NC(=O)c1cnn(C/C(=C/F)CN)c1	1.10
CC(C)(C)N1CCc2c(cnn2C/C(=C/F)CN)C1=O	0.61
